- EXPERIMENTAL_SYSTEM: Smurf1 WW2 (Homo sapiens, UniProt Q9HCE7)
- PROCEDURE_SUMMARY: ITC, Smad7 peptide vs Smurf1 WW2
- Format: binding
MEASUREMENT_TYPE: pKd
Bear in mind: pKd is minus log10 of a mol/L concentration; give just that figure.

q: Tell us which pKd value is on record for Ac-ELESPPPPYSRYPMD-NH2 [Smad7 peptide]
a: 5.39

---

- EXPERIMENTAL_SYSTEM: Smurf2 WW2-WW3 (Homo sapiens, UniProt Q9HAU4)
- Sequence (Q9HAU4 250-333 limits assumed): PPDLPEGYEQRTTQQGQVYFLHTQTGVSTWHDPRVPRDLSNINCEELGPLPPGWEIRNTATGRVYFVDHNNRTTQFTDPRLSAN
- PROCEDURE_SUMMARY: ITC, Smad7 peptide vs Smurf2 WW2-WW3 pair
- Assay type: binding
- RUN_PARAMETERS: affinity (KD), ITC; 15 °C
MEASUREMENT_TYPE: Kd (nM)
Numbers only; they are read as nM.

q: Tell us which Kd value is on record for Ac-ELESPPPPYSRYPMD-NH2 [Smad7 peptide]
a: 1700

The reported numbers originate from paper PMC3472128.
